# assay.summary: Antihypertensive effects in spontaneously hypertensive rats (oral administration, tail cuff method)
# Format: in vivo
# test.parameters: 30 mg/kg P.O., spontaneously hypertensive rats with systolic blood pressure higher than 150 mmHg
Here, each record is paired with measured change in systolic blood pressure (mm Hg) at stated dose P.O. data.
property.label: change in systolic blood pressure (mm Hg) at stated dose P.O.

In [3]: df
Out[3]:
                                   compound  value_unit  recorded_value
0  COc1ccccc1OCCNCC(O)c1ccc(C)c(S(N)(=O)=O)c1 (centres unmarked) [Compound A, reference compound]       mm Hg             -30
1  CCOc1ccccc1OCCNC(C)Cc1ccc(OC)c(SC)c1.Cl (centres unmarked)       mm Hg             -48
2  COc1ccccc1OCCNCC(O)c1ccc(C)c([S+](C)[O-])c1.O=C(O)C(=O)O (centres unmarked)       mm Hg             -60
3  CCOc1ccccc1OCCNC(C)Cc1ccc(OC)c(S(C)(=O)=O)c1.Cl (centres unmarked)       mm Hg             -58
4  Cc1ccc(N(CC2=NCCN2)c2cccc(O)c2)cc1 [phentolamine, reference compound]       mm Hg             -53
